Each entry below lists one item and its recorded binding signal value.
molecular target: WRKY33 cDBD (Arabidopsis thaliana, UniProt Q8S8P5 345-449); experiment: DPI-ELISA; DPI-ELISA, streptavidin 384-well plate, 1-2 pmol biotinylated dsDNA per well, crude native E. coli extract, anti-His detection; buffer as in Brand et al. [46],; high values mean tight binding; conditions: tags: C-terminal His (pET-DEST42); label: 5' biotin on forward strand
Sequence (Q8S8P5 other isoform, or with tags, fused parts or gaps): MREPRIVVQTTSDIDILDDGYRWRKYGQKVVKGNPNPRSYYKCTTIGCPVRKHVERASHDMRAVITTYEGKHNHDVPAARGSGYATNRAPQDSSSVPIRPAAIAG

The following binders have reported results that may help.
>  <binder>
54 (dsDNA) DNA 1: AAAAAAGTCCGCCCTTAATTCATATTAAAA DNA 2: TTTTAATATGAATTAAGGGCGGACTTTTTT

>  <binding signal>
2.35 relative normalized absorbance

$$$$
>  <binder>
108 (dsDNA) DNA 1: AAAAAAGGCGTCTGACTGTAACTCGTAAAA DNA 2: TTTTACGAGTTACAGTCAGACGCCTTTTTT

>  <binding signal>
2.35 relative normalized absorbance

$$$$

Proceeding to the next binder to report its binding signal.
Incoming: Which binding signal reading was recorded for the binder 246 (dsDNA) DNA 1: AAAAAACTGACCGTCAGCGCCCACGCAAAA DNA 2: TTTTGCGTGGGCGCTGACGGTCAGTTTTTT ?
Outgoing: 2.09 relative normalized absorbance

Reference source: paper PMC3795721
